- Experimental target: BRD4(BD1) (Homo sapiens, UniProt O60885)
- Construct: His; made in house
- Experiment summary: BRD4 AlphaLisa binding assay (Alphascreen)
- Applied conditions: Table 14; BRD4 AlphaLisa Binding Assay; read-out: Alpha screen
Endpoint name: IC50

| Compound | Reading |
| --- | --- |
| Cc1noc2c1-c1ccc(-c3ccc(N)nc3)cc1C(c1ccc(Cl)cc1)=N[C@H]2CC(N)=O [Compound 213] | < 0.5 µM |
| CCNC(=O)NC1N=C(c2ccc(C#N)cc2)c2ccccc2-c2c(C)noc21 (stereo not drawn) [compound 261] | < 0.5 µM |
| Cc1noc2c1-c1sc(C)c(C)c1C(C(C)c1ccccc1)=N[C@H]2CC(N)=O (stereo partly drawn) [Compound 195] | > 1 µM |
| Cc1noc2c1-c1ccc(-c3ccc(N)nc3)cc1C(c1ccc(C(F)(F)F)cc1)=N[C@H]2CC(N)=O [Compound 206] | < 0.5 µM |
| Cc1noc2c1-c1ccccc1C(c1ccc(Cl)cc1)=N[C@H]2CC(C)(C)O [Compound 223] | > 1 µM |
| COc1ccc2c(n1)C(c1ccc(Cl)cc1)=NCc1onc(C)c1-2 [Compound 242] | 0.5 to 1 µM |
| Cc1noc2c1-c1cnc(Cl)cc1C(c1ccc(Cl)cc1)=NC2 [Compound 256] | > 1 µM |
| Cc1noc2c1-c1ccc(Cl)cc1C(c1ccc(C(F)(F)F)cc1)=N[C@H]2CC(=O)O [Compound 200] | > 1 µM |
| Cc1noc2c1-c1ccc(Cl)nc1C(c1ccc(Cl)cc1)=NC2 [Compound 240] | > 1 µM |

* * *

- Experimental target: BRD4(BD1) (Homo sapiens)
- Construct: His; made in house
- Experiment summary: BRD4 AlphaLisa binding assay (Alphascreen)
- Applied conditions: Table 14; BRD4 AlphaLisa Binding Assay; read-out: Alpha screen
pIC50: −log10 of the molar value.
Parameter pIC50: see the listing below.

| Compound | Experimental target | pIC50 |
| --- | --- | --- |
| Cc1noc2c1-c1ccc(Cl)cc1C(c1ccc(C(F)(F)F)cc1)=N[C@H]2CC(N)=O [Compound 201] | BRD4(BD1) (Homo sapiens) | > 6.30 |
| Cc1noc2c1-c1ccc(=O)n(C)c1C(c1ccc(Cl)cc1)=NC2 [Compound 246] | BRD4(BD1) (Homo sapiens) | 6.00 to 6.30 |
| Cc1noc2c1-c1cnc(N3CCCC3)cc1C(c1ccc(Cl)cc1)=NC2 [Compound 255] | BRD4(BD1) (Homo sapiens) | > 6.30 |
| COc1ccc2c(c1)C(c1ccc(Cl)cc1)=N[C@@H](CC(N)=O)c1onc(C)c1-2 [Compound 217] | BRD4(BD1) (Homo sapiens) | > 6.30 |
| Cc1noc2c1-c1ccc(N)nc1C(c1ccc(Cl)cc1)=NC2 [Compound 257] | BRD4(BD1) (Homo sapiens) | > 6.30 |
| Cc1noc2c1-c1sc(C)c(C)c1C(C1CCN(C)CC1)=N[C@H]2CC(N)=O [Compound 194] | BRD4(BD1) (Homo sapiens) | < 6.00 |
| Cc1noc2c1-c1ccccc1C(c1ccc(Cl)cc1)=NC2C#N (centres unmarked) [Compound 215] | BRD4(BD1) (Homo sapiens) | < 6.00 |
| Cc1noc2c1-c1c[nH]c(=O)cc1C(c1ccc(Cl)cc1)=NC2 [Compound 266] | BRD4(BD1) (Homo sapiens) | > 6.30 |

* * *

- Experimental target: BRD4(BD1) (Homo sapiens)
- Construct: His; made in house
- Experiment summary: BRD4 AlphaLisa binding assay (Alphascreen)
- Applied conditions: Table 14; BRD4 AlphaLisa Binding Assay; read-out: Alpha screen
- Description: Specifically, in a 384 well ProxiPlate BRD4(BD1) (30 nM final) was combined with peptide (200 nM final) in 40 mM HEPES (pH 7.0), 40 mM NaCl, 1 mM DTT, 0.01% (w/v) BSA, and 0.008% (w/v) Brij-35 either in the presence of DMSO (final 1.2% DMSO) or compound dilution series in DMSO. […] After three hours equilibration plates were read on an Envision instrument and IC50s calculated using a four parameter non-linear curve fit.

| Compound | IC50 |
| --- | --- |
| Cc1noc2c1-c1ccccc1C(c1ccc(Cl)cc1)=N[C@H]2CC(=O)NC(C)(C)C | < 500 nM |
| Cc1noc2c1-c1sc(C)c(C)c1C(c1ccc(C(F)(F)F)cc1)=NC2CC(N)=O (centres unmarked) | < 500 nM |
| Cc1noc2c1-c1ccccc1C(c1ccc(C3(O)CC3)cc1)=N[C@H]2CC(N)=O | < 500 nM |
| CC(=O)NC1N=C(c2ccc(C#N)cc2)c2ccccc2-c2c(C)noc21 (centres unmarked) | < 500 nM |
| Cc1noc2c1-c1[nH]c(=O)ccc1C(c1ccc(Cl)cc1)=NC2 | > 1000 nM |
| CNc1ccc2c(n1)-c1c(C)noc1CN=C2c1ccc(Cl)cc1 | > 1000 nM |
| Cc1noc2c1-c1ccccc1C(c1ccc(C(C)(C)O)cc1)=N[C@H]2CC(N)=O | < 500 nM |
| Cc1noc2c1-c1ccc(F)cc1C(c1ccc(C#N)cc1)=N[C@H]2CC(N)=O | < 500 nM |

* * *

- Experimental target: BRD4(BD1) (Homo sapiens, UniProt O60885)
- Construct: His; made in house
- Experiment summary: BRD4 AlphaLisa binding assay (Alphascreen)
- Applied conditions: Table 14; BRD4 AlphaLisa Binding Assay; read-out: Alpha screen
pIC50: −log10 of the molar value.
Endpoint name: pIC50

| Compound | Experimental target | Reading |
| --- | --- | --- |
| Cc1noc2c1-c1ccccc1C(c1ccc(Cl)cc1)=N[C@H]2CC(N)C(F)(F)F (mixture of isomers) [Compound 232] | BRD4(BD1) (Homo sapiens, UniProt O60885) | < 6.00 |
| Cc1noc2c1-c1ccccc1C(c1ccc(Cl)cc1)=NC2C(N)=O (stereo not shown) [Compound 218] | BRD4(BD1) (Homo sapiens, UniProt O60885) | < 6.00 |
| Cc1noc2c1-c1nc(N)ccc1C(c1ccc(Cl)cc1)=NC2 [Compound 228] | BRD4(BD1) (Homo sapiens, UniProt O60885) | < 6.00 |
| Cc1noc2c1-c1ccnc(N)c1C(c1ccc(Cl)cc1)=N[C@H]2CC(N)=O [Compound 222] | BRD4(BD1) (Homo sapiens, UniProt O60885) | > 6.30 |
| CCOc1ccc2c(c1)C(c1ccc(Cl)cc1)=N[C@@H](CC(N)=O)c1onc(C)c1-2 [Compound 248] | BRD4(BD1) (Homo sapiens, UniProt O60885) | > 6.30 |
| Cc1noc2c1-c1ccccc1C(c1ccc(F)cc1)=NC2C(F)(F)F (stereo not shown) [Compound 238] | BRD4(BD1) (Homo sapiens, UniProt O60885) | < 6.00 |
| Cc1noc2c1-c1ccccc1C(c1ccc(C#N)cc1)=NC2NC(=O)C(C)C (stereo not shown) [compound 264] | BRD4(BD1) (Homo sapiens, UniProt O60885) | < 6.00 |
| Cc1noc2c1-c1ccc(Cl)cc1C(c1ccc(F)cc1)=N[C@H]2CC(N)=O [Compound 211] | BRD4(BD1) (Homo sapiens, UniProt O60885) | > 6.30 |
| CCOC(=O)NC1N=C(c2ccc(Cl)cc2)c2ccccc2-c2c(C)noc21 (single isomer, unassigned) [Compound 253] | BRD4(BD1) (Homo sapiens, UniProt O60885) | > 6.30 |
| CC(=O)NC(C[C@@H]1N=C(c2ccc(Cl)cc2)c2ccccc2-c2c(C)noc21)C(F)(F)F (mixture of isomers) [Compound 244] | BRD4(BD1) (Homo sapiens, UniProt O60885) | < 6.00 |
| Cc1noc2c1-c1sc(C)c(C)c1C(c1ccc(C#N)cc1)=N[C@H]2[C@@H](C)C(N)=O [Compound 209] | BRD4(BD1) (Homo sapiens, UniProt O60885) | > 6.30 |
| COc1ccc2c(n1)-c1c(C)noc1CN=C2c1ccc(Cl)cc1 [Compound 219] | BRD4(BD1) (Homo sapiens, UniProt O60885) | < 6.00 |
| CNc1ccc2c(n1)C(c1ccc(Cl)cc1)=NCc1onc(C)c1-2 [Compound 241] | BRD4(BD1) (Homo sapiens, UniProt O60885) | > 6.30 |
| CCNC(=O)NC1N=C(c2ccc(OC(F)(F)F)cc2)c2ccccc2-c2c(C)noc21 (stereo not shown) [compound 259] | BRD4(BD1) (Homo sapiens, UniProt O60885) | > 6.30 |
| Cc1noc2c1-c1ccccc1C(c1ccc(F)cn1)=N[C@H]2CC(N)=O [Compound 196] | BRD4(BD1) (Homo sapiens, UniProt O60885) | < 6.00 |
| Cc1noc2c1-c1ccc(Cl)cc1C(c1ccc(F)cc1)=N[C@H]2C [Compound 230] | BRD4(BD1) (Homo sapiens, UniProt O60885) | > 6.30 |
